System: Fibroblast
Experiment: Multiplex assay against human fibroblast
Type: toxicity, cell-based
Details: 12 h, 1 µM, compound concentration 1 uM, replicate 1
The label is 1 for Population Mitochondria Different-Phenotype (%) below 3% and 0 for Population Mitochondria Different-Phenotype (%) equal to or exceeding 3%.

Some solved cases for reference:
Compound	Measured on	Label class
CN[C@@H]1C[C@H]2O[C@@](C)([C@@H]1OC)n1c3ccccc3c3c4c(c5c6ccccc6n2c5c31)C(=O)NC4 [STAUROSPORINE]	Fibroblast	1
COc1ccc(S(=O)(=O)N(CCO)c2ccccc2CN(C)C/C=C/c2ccc(Cl)cc2)cc1.O=P(O)(O)O	Fibroblast	0
Cc1ccc2nc(NCCN)c3ncc(C)n3c2c1.O=C(O)C(F)(F)F.O=C(O)C(F)(F)F	Fibroblast	1

Next compound, please.
Exam item: A record lists Cl.O=C(c1ccc(Nc2nccc(-c3cc4ccccc4s3)n2)cc1)N1CCC(N2CCCC2)CC1 . Is its Population Mitochondria Different-Phenotype (%) below 3%?
Marked response: 0

###

Tested on: U2OS
Test: Incucyte cell viability with U2OS; note: filed as whole numbers so only -1 and 0 and 1 occur
Format: toxicity, cell-based
Conditions: human, 12 h, 10 µM, compound concentration 10 uM, replicate number 1, timepoint 12 hours
Endpoint name: Growth Rate
Write the value as a bare number.

Example results:
Molecule	Measured on	Endpoint name	Recorded result
CCCc1c(OCCCOc2ccc(OCC(=O)O)cc2)ccc(C(C)=O)c1O	U2OS	Growth Rate	0
COc1ccnc(N2CCC3(CCCN(Cc4c[nH]c5ccccc45)C3=O)CC2)n1	U2OS	Growth Rate	1
C[C@@H]1CN(c2cc(-c3n[nH]c4ccc(OC5(C)CC5)cc34)ncn2)C[C@H](C)O1	U2OS	Growth Rate	1
Cl.O=C(c1ccc(Nc2nccc(-c3cc4ccccc4s3)n2)cc1)N1CCC(N2CCCC2)CC1	U2OS	Growth Rate	0
CC(=O)c1c(NS(C)(=O)=O)c2cc(-c3ccc(Cl)cc3)c(-c3ccc(Cl)cc3Cl)nc2n(C)c1=O	U2OS	Growth Rate	1

Exam item: Determine from records and report Growth Rate for COc1cc(N2CCC(N3CCN(C)CC3)CC2)ccc1Nc1ncnc(Nc2ccccc2S(=O)(=O)C(C)C)n1
Marked response: 0

Exam item: State, in one line, measured Growth Rate of CNC(=O)c1ccccc1Nc1cc(Nc2ccc(N3CCOCC3)cc2OC)ncc1C(F)(F)F
Marked response: 0

Exam item: Answer with the recorded Growth Rate of Cc1ccc2nc(NCCN)c3ncc(C)n3c2c1.O=C(O)C(F)(F)F.O=C(O)C(F)(F)F only.
Marked response: 0

###

Entries and their Population Hoechst High Intensity Objects (%) values follow.
System: Fibroblast
Test: Multiplex assay against human fibroblast
Type: toxicity, cell-based
Details: 12 h, 1 µM, compound concentration 1 uM, replicate 1
Quick note: give the figure in %, leave out the unit.

Consider the worked cases shown below.
Compound	Measured on	Recorded result
CNc1cc(Oc2cc(C(=O)Nc3cc(N4CCN(C)CC4)cc(C(F)(F)F)c3)ccc2C)ncn1	Fibroblast	9
Cc1cn(-c2cc(NC(=O)c3ccc(C)c(Nc4nccc(-c5cccnc5)n4)c3)cc(C(F)(F)F)c2)cn1	Fibroblast	8
CCOC(=O)c1c(C)[nH]c2ccc3c(c12)CN1CCc2cc(OC)ccc2C1O3 (stereo not drawn)	Fibroblast	8
COc1cc(N2CCN(C)CC2)ccc1Nc1ncc2c(n1)N(C)c1ccccc1C(=O)N2C	Fibroblast	11
CCc1cccc(CC)c1NC(=O)c1nn(C)c2c1CCc1cnc(Nc3ccc(N4CCN(C)CC4)cc3OC)nc1-2	Fibroblast	9

Exam item: Identify measured Population Hoechst High Intensity Objects (%) corresponding to CCCS(=O)(=O)Nc1ccc(F)c(C(=O)c2c[nH]c3ncc(Cl)cc23)c1F
Marked response: 10

Exam item: Give the reported value of Population Hoechst High Intensity Objects (%) for this record: CCN1CCN(Cc2ccc(Nc3ncc(F)c(-c4cc(F)c5nc(C)n(C(C)C)c5c4)n3)nc2)CC1.CS(=O)(=O)O
Marked response: 15

Exam item: Annotate the compound CN(C)C(=O)C(CCN1CCC(O)(c2ccc(Cl)cc2)CC1)(c1ccccc1)c1ccccc1.Cl [LOPERAMIDE HYDROCHLORIDE] with its measured Population Hoechst High Intensity Objects (%).
Marked response: 12
